The measurements presented in this section are drawn from PubChem BioAssay AID1996.

- test.parameters: buffer; pH 7.4; 200.0 µM
assay.readout: solubility kinetic (µg/mL)
Supply the numeric figure in µg/mL, leaving out any unit text.

> print(dat)
                                   compound       assay.readout  numeric.readout
1                       CSc1cccc(NC(N)=S)c1  solubility kinetic             29.2
2    COc1cccc(/C=C2\N=C(C3CCCCC3)OC2=O)c1OC  solubility kinetic             16.4
3         Cc1ccc(NC(=O)C(=O)c2ccc(C)cc2)cc1  solubility kinetic              0.7
4                       CC(C)(CN)CC(=O)O.Cl  solubility kinetic             23.2
5      Cc1ccc(OCCCC(=O)ON=C(N)c2ccccc2C)cc1  solubility kinetic             19.9
6                 CCN1CSC(=S)N(Cc2ccccc2)C1  solubility kinetic             37.5
7  CC(=O)c1c(C)[nH]c(C(=O)COC(=O)c2nccnc2N)c1C  solubility kinetic             11.9
8       CC(=O)c1c[nH]c(C(=O)NCc2ccccc2Cl)c1  solubility kinetic              3.5

What the record says about "O=C1/C(=C/c2ccncc2)N=C2CCCCCN12" : solubility kinetic is 33.9

What the record says about CCOc1cc(N2CCOCC2)c(OCC)cc1NC(=O)C(C)Oc1ccccc1 (stereo not given) : solubility kinetic is 43.6

----------
- test.parameters: buffer; pH 7.4; 200.0 µM
assay.readout: solubility kinetic

> print(dat)
                                   compound        result
1  O=S(=O)(c1ccccc1)N(Cc1cccc(F)c1)c1ccccc1   < 0.7 µg/mL
2  O=C(NCC1CCCO1)c1ccc2[nH]c3c(c2c1)CCCC3 (stereo not drawn)  > 44.8 µg/mL
3      O=C(CN1CCCC1)Nc1ccc([N+](=O)[O-])cc1  > 37.4 µg/mL
4  COc1ccccc1NC(=O)NCC1CC1(Cl)Cl (stereo not drawn)    42.1 µg/mL
5  Cc1cc(C)c(NC(=O)Cn2c([N+](=O)[O-])cnc2C)c(C)c1     4.1 µg/mL

What the record says about "CCc1nonc1NC(=O)c1oc2ccc(Cl)cc2c1C" : solubility kinetic is < 0.2 µg/mL

What the record says about "C[C@H](NC(=O)c1ccccc1)C(=O)OCC(=O)Nc1sccc1C(N)=O" : solubility kinetic is > 56.3 µg/mL

----------
Reported solubility kinetic values for a set of compounds
- test.parameters: buffer; pH 7.4; 200.0 µM

Known solubility kinetic results, listed for orientation:
> print(dat)
                                   compound       assay.readout        result
1            COc1cccc2c(C)cc(N3CCCCCC3)nc12  solubility kinetic    33.2 µg/mL
2  CN(Cc1cccc(Cl)c1)C(=O)C1CSC2(C)CCC(=O)N12 (stereo not drawn)  solubility kinetic  > 50.8 µg/mL
3            Cc1ccc(CONC(=O)c2ccc(C)cc2)cc1  solubility kinetic    20.2 µg/mL

What the record says about "O=C(CCCN1C(=O)/C(=C\c2ccccc2)SC1=S)N1CCOCC1" : solubility kinetic is 9.8 µg/mL

What the record says about "CCc1nc2ccc(C(=O)NCc3ccccc3)cc2nc1CC" : solubility kinetic is 3.6 µg/mL

What the record says about CC(=O)NC1C(O)OC(CO)C(O)C1O (stereo not drawn) : solubility kinetic is > 33.2 µg/mL

What the record says about Clc1ccccc1Cc1noc(CN2CCN3CCCC3C2)n1 (stereo not drawn) : solubility kinetic is > 49.9 µg/mL

What the record says about "Cc1cccc(/C(N)=N/OC(=O)c2cccc3ccccc23)c1" : solubility kinetic is 1.1 µg/mL

What the record says about "CNCc1c(OCc2ccc(F)cc2)ccc2ccccc12.Cl" : solubility kinetic is > 49.8 µg/mL

What the record says about "N#CCC(=O)Nc1ccc(C(=O)OCC(=O)NC(=O)NCc2ccco2)cc1" : solubility kinetic is 17.4 µg/mL

What the record says about "Cc1cccnc1NC(=O)c1ccc(OCc2c(C)noc2C)cc1" : solubility kinetic is 43.7 µg/mL

What the record says about CC(C)c1ccc(NC(=O)c2ccccc2NC(=O)C2CC=CCC2C(=O)O)cc1 (stereo not drawn) : solubility kinetic is > 61 µg/mL

What the record says about "O=C(NCCCc1ccccc1)c1cncc(Br)c1" : solubility kinetic is 47.9 µg/mL

----------
Reported solubility kinetic values for a set of compounds
- test.parameters: buffer; pH 7.4; 200.0 µM

> print(dat)
                           compound        result
1  Cc1nnc(SCC(=O)NC2CCCCCC2)n1C(C)C  > 46.6 µg/mL

Field: next compound
What the record says about "O=C(/C=C/c1ccco1)NC(=S)Nc1cccc(C(=O)O)c1" : solubility kinetic is > 47.4 µg/mL

----------
- test.parameters: buffer; pH 7.4; 200.0 µM
assay.readout: solubility kinetic

Known solubility kinetic results, listed for orientation:
> print(dat)
                                   molecule        result
1             O=S(=O)(NC1CC1)c1ccc(F)c(F)c1    > 35 µg/mL
2          COc1cc(CNC(=O)C2CCCC2)cc(OC)c1OC    > 44 µg/mL
3    CN(C)CCOC(=O)NCC12CC3CC(CC(C3)C1)C2.Cl  > 47.5 µg/mL
4         Cn1ncc(Cl)c1C(=O)N1CCC2(CC1)OCCO2  > 42.9 µg/mL
5  COc1ccc(-c2cc(C(=O)Nc3ccc(OC)c(OC)c3)no2)cc1   < 0.4 µg/mL

What the record says about CC(C)N(Cc1ccccc1)C(=O)CN1C(=O)NC2(CCOc3ccccc32)C1=O (centres undefined) : solubility kinetic is > 61.1 µg/mL

What the record says about COc1ccc(C2C(C(=O)O)c3ccccc3C(=O)N2Cc2ccco2)cc1 (centres undefined) : solubility kinetic is > 56.6 µg/mL

What the record says about "C=CCNC(=O)C1CCN(S(=O)(=O)c2cccs2)CC1" : solubility kinetic is > 47.2 µg/mL

What the record says about COc1cccc(NC(=S)N(CCN(C)C)C(C)c2cccnc2)c1 (centres undefined) : solubility kinetic is > 53.8 µg/mL

----------
- test.parameters: buffer; pH 7.4; 200.0 µM
Reported solubility kinetic values for a set of compounds

Known solubility kinetic results, listed for orientation:
> print(dat)
                                compound        result
1            Cc1ccccc1C(=O)NCC(=O)NC1CC1  > 34.8 µg/mL
2  C/C(=N/OC(=O)c1ccc(Br)cc1)c1ccc(C)cc1   < 0.7 µg/mL
3           O=S(=O)(c1ccc(Cl)s1)N1CCNCC1    > 40 µg/mL
4  Cc1ccc(C)c(S(=O)(=O)NCCN2CCOCC2)c1.Cl  > 50.2 µg/mL

What the record says about "CCNC(=O)COC(=O)/C=C/c1cccc(F)c1" : solubility kinetic is > 37.7 µg/mL

What the record says about CC(C)(C)NC(=O)C(OC(=O)c1ccco1)c1ccccc1F (stereo unspecified) : solubility kinetic is > 47.9 µg/mL

What the record says about "C[C@H](NC(=O)c1ccc(C(C)(C)C)cc1)C(=O)N1CCOCC1" : solubility kinetic is > 47.8 µg/mL

What the record says about "CN1CCN(S(=O)(=O)c2ccc3c(c2)CC(=O)N3C)CC1" : solubility kinetic is > 46.4 µg/mL

----------
Reported solubility kinetic values for a set of compounds
- test.parameters: buffer; pH 7.4; 200.0 µM

> print(dat)
                                   compound        result
1  COc1ccc(CNC(=O)C2CC(C)=C(C)CC2C(=O)O)cc1OC (stereo not given)  > 52.1 µg/mL

What the record says about "COc1ccc(/C=C/C(=O)OCC(=O)N2CCCC2)c(OC)c1" : solubility kinetic is > 47.9 µg/mL

What the record says about CC1CC1C(=O)N(C)CC(=O)Nc1ccccc1Br (stereo not given) : solubility kinetic is > 48.8 µg/mL

What the record says about "O=C(NCCCSc1ccccc1)c1cccnc1" : solubility kinetic is > 40.9 µg/mL

What the record says about COCCOC(=O)C1=C(C)NC(=S)NC1c1cccs1 (stereo not given) : solubility kinetic is > 46.9 µg/mL

----------
- test.parameters: buffer; pH 7.4; 200.0 µM
Reported solubility kinetic values for a set of compounds
Supply the numeric figure in µg/mL, leaving out any unit text.

Known solubility kinetic results, listed for orientation:
> print(dat)
                                    compound  endpoint.unit  numeric.readout
 1  COc1ccc(CN(C)C(C)C(=O)Nc2ccc(S(=O)(=O)N3CCCCC3)cc2)c(OC)c1 (centres undefined)          µg/mL              6.1
 2       Cc1ccc(CNC(=O)COC(=O)c2cccnc2Cl)cc1          µg/mL             23.7
 3  CC1=CCC2C(=O)N(c3ccc(N4CCOCC4)cc3)C(=O)C2C1 (centres undefined)          µg/mL             45.3
 4  CN(C)c1cc(-c2ccc([N+](=O)[O-])cc2)oc(=O)c1Cl          µg/mL              0.9
 5             Cc1cc(N)ccc1-c1cc2ccccc2oc1=O          µg/mL             25.8
 6  COC(=O)c1ccc(Cn2cc(/C=C\[N+](=O)[O-])c3ccccc32)o1          µg/mL              1.6
 7         O=C(O)CSCC(=O)NCc1csc2ccc(Cl)cc12          µg/mL             37.9
 8  COc1ccc(S(=O)(=O)Nc2cccc(S(=O)(=O)N3CCCCC3)c2)cc1          µg/mL               44
 9  O=C(C1CC(=O)N(c2ccc(F)cc2)C1)N1CCCCC1 (centres undefined)          µg/mL               39
10       CC(C)c1ccc(C(=O)OCC(=O)NC2CCCC2)cc1          µg/mL             11.8

What the record says about COC(=O)CC1C(=O)NCCN1C(=O)Nc1cccc(Cl)c1 (centres undefined) : solubility kinetic is 48.8

What the record says about "CCOc1ccc(C(=O)OCC(=O)Nc2cccnc2Cl)cc1OCC" : solubility kinetic is 19

What the record says about Cc1cccc(NC(=O)C2COc3ccccc3O2)n1 (centres undefined) : solubility kinetic is 35.9
